// provenance: patent US4436751A

- System: Past. multocida PA1
- Protocol summary: Veterinary bacteria MIC, Diagnostic Sensitivity Test Agar (Table 2)
- Type: cell-based
- Experimental parameters: Pasteurella multocida; Past. multocida PA1; DST Agar, 10^4 organisms, 18 hours 37° C.; read-out: MIC
For each record, check the reported MIC: if it is below 1 µg/mL write Yes, else write No.

Query: In the record for C/C(=C\C(=O)OCc1cccc([N+](=O)[O-])c1)CC1OCC(CC2OC2C(C)C(C)O)C(O)C1O (stereo not shown) [Example 2, m-nitrobenzyl monate A] , is MIC less than 1 µg/mL?
Reply: Yes

Query: Report whether reported MIC is lower than 1 µg/mL (strictly) for C/C(=C\C(=O)OC(C)c1cccc([N+](=O)[O-])c1)CC1OCC(CC2OC2C(C)C(C)O)C(O)C1O (stereo not shown) [Example 3, 1-(m-nitrophenyl)ethyl monate A]
Reply: No

Query: is_below(MIC, 1 µg/mL) for C/C(=C\C(=O)OCc1cccc([N+](=O)[O-])c1)CC1OCC(C/C=C/C(C)C(C)O)C(O)C1O (stereo not shown) [Example 5, m-nitrobenzyl monate C] ?
Reply: No

Query: Please indicate whether the reported MIC of C/C(=C\C(=O)OCc1ccccc1[N+](=O)[O-])CC1OCC(CC2OC2C(C)C(C)O)C(O)C1O (stereo not shown) [C, O--nitrobenzyl monate A, reference compound] is strictly below 1 µg/mL.
Reply: No

Query: Dear colleague, could you confirm whether MIC of C/C(=C\C(=O)OCc1cccc([N+](=O)[O-])c1C)CC1OCC(CC2OC2C(C)C(C)O)C(O)C1O (stereo not shown) [Example 8, 2-methyl-3-nitrobenzyl monate A] falls below 1 µg/mL? Thanks.
Reply: No

Query: Take the compound C/C(=C\C(=O)OCc1ccc([N+](=O)[O-])cc1)CC1OCC(CC2OC2C(C)C(C)O)C(O)C1O (stereo not shown) [Example 1, p-nitrobenzyl monate A] and say whether its MIC is less than 1 µg/mL.
Reply: Yes

Query: Given C/C(=C\C(=O)OC(C)c1ccc([N+](=O)[O-])cc1)CC1OCC(CC2OC2C(C)C(C)O)C(O)C1O (stereo not shown) [Example 4, 1-(p-nitrophenyl)ethyl monate A] , is recorded MIC strictly lower than 1 µg/mL?
Reply: No

---

- Test system: Strep. dylgalactiae SPD1
- Protocol summary: Veterinary bacteria MIC, Diagnostic Sensitivity Test Agar (Table 2)
- Type: cell-based
- Experimental parameters: Strep. dylgalactiae SPD1; DST Agar, 10^4 organisms, 18 hours 37° C.; read-out: MIC
Field: MIC. Provide a value for each of the molecules that follow.
Respond numerically; units are µg/mL and should not be typed.

Query: Find the measured MIC of C/C(=C\C(=O)OC(C)c1cccc([N+](=O)[O-])c1)CC1OCC(CC2OC2C(C)C(C)O)C(O)C1O (stereo not shown) [Example 3, 1-(m-nitrophenyl)ethyl monate A] and report it.
Reply: 1.25

Query: Dear colleague, please send me the reported MIC for C/C(=C\C(=O)OCc1ccc([N+](=O)[O-])cc1Cl)CC1OCC(CC2OC2C(C)C(C)O)C(O)C1O (stereo not shown) [Example 11, 2-chloro-4-nitrobenzyl monate A] when you can.
Reply: 0.156

Query: Indicate the recorded MIC value for this molecule: C/C(=C\C(=O)OCc1ccccc1[N+](=O)[O-])CC1OCC(CC2OC2C(C)C(C)O)C(O)C1O (stereo not shown) [C, O--nitrobenzyl monate A, reference compound]
Reply: 0.625

Query: Give MIC for the following molecule: C/C(=C\C(=O)OCc1ccc([N+](=O)[O-])cc1)CC1OCC(CC2OC2C(C)C(C)O)C(O)C1O (stereo not shown) [Example 1, p-nitrobenzyl monate A]
Reply: 0.07

---

- System: Staph. aureus Russell
- Protocol summary: Human bacteria MIC, nutrient agar with chocolated horse blood (Table 3)
- Format: cell-based
- Experimental parameters: Staphylococcus aureus; Staph. aureus Russell; nutrient agar 5% chocolated horse blood, 18 hours 37° C.; read-out: MIC
Measurement type: MIC (mg/L)
Form entry: value (mg/L) — number only.

Query: Look up MIC of C/C(=C\C(=O)OCc1cccc([N+](=O)[O-])c1C)CC1OCC(CC2OC2C(C)C(C)O)C(O)C1O (stereo not shown) [Example 8, 2-methyl-3-nitrobenzyl monate A] and report it.
Reply: 2.5

Query: Give reported MIC value for C/C(=C\C(=O)OCc1ccccc1[N+](=O)[O-])CC1OCC(CC2OC2C(C)C(C)O)C(O)C1O (stereo not shown) [C, O--nitrobenzyl monate A, reference compound]
Reply: 2.5

Query: Hello, please tell me recorded MIC for this one: C/C(=C\C(=O)OCc1cccc([N+](=O)[O-])c1)CC1OCC(CC2OC2C(C)C(C)O)C(O)C1O (stereo not shown) [Example 2, m-nitrobenzyl monate A]
Reply: 10

Query: Using the record for C/C(=C\C(=O)OC(C)c1cccc([N+](=O)[O-])c1)CC1OCC(CC2OC2C(C)C(C)O)C(O)C1O (stereo not shown) [Example 3, 1-(m-nitrophenyl)ethyl monate A] , state its measured MIC.
Reply: 2.5

Query: Please indicate MIC recorded for C/C(=C\C(=O)OC(C)c1ccc([N+](=O)[O-])cc1)CC1OCC(CC2OC2C(C)C(C)O)C(O)C1O (stereo not shown) [Example 4, 1-(p-nitrophenyl)ethyl monate A]
Reply: 2.5

Query: Identify MIC associated with the molecule C/C(=C\C(=O)OCc1ccc([N+](=O)[O-])cc1)CC1OCC(CC2OC2C(C)C(C)O)C(O)C1O (stereo not shown) [Example 1, p-nitrobenzyl monate A]
Reply: 0.5

Query: Provide one value: measured MIC of C/C(=C\C(=O)OCc1cccc([N+](=O)[O-])c1)CC1OCC(C/C=C/C(C)C(C)O)C(O)C1O (stereo not shown) [Example 5, m-nitrobenzyl monate C]
Reply: 2.5

---

- Test system: Strep. dylgalactiae SPD1
- Protocol summary: Veterinary bacteria MIC, Diagnostic Sensitivity Test Agar (Table 2)
- Assay type: cell-based
- Experimental parameters: 18 h
Measurement type: MIC
Express your answer as a number followed by its unit.

Query: Send back Strep. dylgalactiae SPD1 MIC of C/C(=C\C(=O)OCc1ccc([N+](=O)[O-])c([N+](=O)[O-])c1)CC1OCC(CC2OC2C(C)C(C)O)C(O)C1O (centres unmarked) [Example 9, 3,4-dinitrobenzyl monate A] only.
Reply: 0.07 µg/mL

Query: Find MIC for C/C(=C\C(=O)OCc1cc([N+](=O)[O-])cc([N+](=O)[O-])c1C)CC1OCC(CC2OC2C(C)C(C)O)C(O)C1O (centres unmarked) [Example 7, 3,5-dinitro-2-methylbenzyl monate A] on Strep. dylgalactiae SPD1 and write it down.
Reply: 0.625 µg/mL

Query: Write down measured MIC (Strep. dylgalactiae SPD1) for this molecule. C/C(=C\C(=O)OCc1cc([N+](=O)[O-])cc([N+](=O)[O-])c1)CC1OCC(CC2OC2C(C)C(C)O)C(O)C1O (centres unmarked) [Example 6, 3,5-dinitrobenzyl monate A]
Reply: 0.312 µg/mL

Query: Recall the reported MIC of C/C(=C\C(=O)OCc1ccc([N+](=O)[O-])cc1[N+](=O)[O-])CC1OCC(CC2OC2C(C)C(C)O)C(O)C1O (centres unmarked) [Example 10, 2,4-dinitrobenzyl monate A] when tested on Strep. dylgalactiae SPD1.
Reply: 0.312 µg/mL

Query: Give MIC for C/C(=C\C(=O)OCc1cccc([N+](=O)[O-])c1C)CC1OCC(CC2OC2C(C)C(C)O)C(O)C1O (centres unmarked) [Example 8, 2-methyl-3-nitrobenzyl monate A] tested on Strep. dylgalactiae SPD1.
Reply: 0.312 µg/mL

---

Consider the following compounds; for each one, report its MIC.
- Tested on: Corynebacterium pyogenes CY1
- Protocol summary: Veterinary bacteria MIC, Diagnostic Sensitivity Test Agar (Table 2)
- Type: cell-based
- Experimental parameters: Trueperella pyogenes, CY1, 18 h

Query: Query MIC for C/C(=C\C(=O)OCc1cc([N+](=O)[O-])cc([N+](=O)[O-])c1)CC1OCC(CC2OC2C(C)C(C)O)C(O)C1O (stereo not drawn) [Example 6, 3,5-dinitrobenzyl monate A]
Reply: > 80 µg/mL

Query: Retrieve MIC measured for C/C(=C\C(=O)OCc1ccccc1[N+](=O)[O-])CC1OCC(CC2OC2C(C)C(C)O)C(O)C1O (stereo not drawn) [C, O--nitrobenzyl monate A, reference compound] and print it.
Reply: > 80 µg/mL

Query: Consider the compound C/C(=C\C(=O)OCc1ccc([N+](=O)[O-])c([N+](=O)[O-])c1)CC1OCC(CC2OC2C(C)C(C)O)C(O)C1O (stereo not drawn) [Example 9, 3,4-dinitrobenzyl monate A] and give its recorded MIC.
Reply: > 80 µg/mL

---

What MIC was measured for each of the following?
- System: Bacillus subtilis 6633
- Protocol summary: Human bacteria MIC, nutrient agar with chocolated horse blood (Table 3)
- Format: cell-based
- Experimental parameters: Bacillus subtilis 6633; nutrient agar 5% chocolated horse blood, 18 hours 37° C.; read-out: MIC
Kindly answer with a numeric value in µg/mL, unit omitted.

Query: Look up MIC of C/C(=C\C(=O)OCc1cccc([N+](=O)[O-])c1C)CC1OCC(CC2OC2C(C)C(C)O)C(O)C1O (centres unmarked) [Example 8, 2-methyl-3-nitrobenzyl monate A] and report it.
Reply: 0.25

Query: For the compound C/C(=C\C(=O)OC(C)c1ccc([N+](=O)[O-])cc1)CC1OCC(CC2OC2C(C)C(C)O)C(O)C1O (centres unmarked) [Example 4, 1-(p-nitrophenyl)ethyl monate A] , give its reported MIC.
Reply: 1

Query: Please give measured MIC of the following entry: C/C(=C\C(=O)OCc1ccc([N+](=O)[O-])cc1)CC1OCC(CC2OC2C(C)C(C)O)C(O)C1O (centres unmarked) [Example 1, p-nitrobenzyl monate A]
Reply: 0.5

Query: For the compound C/C(=C\C(=O)OCc1cccc([N+](=O)[O-])c1)CC1OCC(C/C=C/C(C)C(C)O)C(O)C1O (centres unmarked) [Example 5, m-nitrobenzyl monate C] , give its measured MIC value.
Reply: 1

Query: Output MIC of C/C(=C\C(=O)OCc1cccc([N+](=O)[O-])c1)CC1OCC(CC2OC2C(C)C(C)O)C(O)C1O (centres unmarked) [Example 2, m-nitrobenzyl monate A]
Reply: 5
